Assay: chemical genetic growth profiling, strain panel (AID 1159580);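 further: tested at 20 µM; growth read once vehicle control cultures reached saturation at 30 °C; 1 = growth at the plate median or of vehicle wells; lower values mean less growth of the strain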
Conditions: S. cerevisiae deletion strains, growth OD, locus YNL298W, strain CLA4, active compounds read low
The whole screen tested about 5,500 compounds, of which about 2,000 (36%) were called active. Another 18% or so got no clear call; they are omitted. The list shows a part of the results.

SMILES_REPR	normalized growth
S=C=NCc1ccccc1	0.0658
CCCCOc1ccc(CC(=O)NO)cc1	1.01
COc1c2c(c(CC=C(C)C)c3oc(=O)c(-c4ccc(O)cc4)c(O)c13)OC(C)(C)C=C2	0.95
COc1ccc(C[C@H]2NC[C@H](O)[C@H]2OC(C)=O)cc1	0.98
CCc1nc(N)nc(N)c1-c1ccc(Cl)cc1	1

====

Assay: chemical genetic growth profiling, strain panel (AID 1159580);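 further: tested at 20 µM; growth read once vehicle control cultures reached saturation at 30 °C; 1 = growth at the plate median or of vehicle wells; lower values mean less growth of the strain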
Conditions: S. cerevisiae deletion strains, growth OD, locus YJL115W, strain asf1, active compounds read low
In all, about 5,500 compounds went through this assay and about 2,000 (36%) were called active. Another 18% or so got no clear call; they are omitted. The list shows a part of the results.

COMPOUND	normalized growth
COC1C(O)C(O)C(O)[C@@H](O)C1O (some centres undefined)	0.971
CO[C@H]1C[C@H](O[C@H]2[C@H](C)[C@@H](OC3O[C@H](C)C[C@H](N(C)C)[C@H]3O)[C@@H](C)C[C@]3(CO3)C(=O)[C@H](C)[C@@H](O)[C@@H](C)[C@@H](C)OC(=O)[C@@H]2C)O[C@@H](C)[C@@H]1O (some centres undefined)	0.991
CCC(C(=O)O)c1ccccc1 (centres undefined)	0.984
OCC(O)Cc1ccc2c(c1)OCO2 (centres undefined)	1

====

Test: chemical genetic growth profiling, strain panel (AID 1159580);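 further: tested at 20 µM; growth read once vehicle control cultures reached saturation at 30 °C; 1 = growth at the plate median or of vehicle wells; lower values mean less growth of the strain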
Conditions: S. cerevisiae deletion strains, growth OD, locus YDR195W, strain ref2
Screen size: about 5,500 compounds; about 2,000 (36%) were called active. About 18% were inconclusive and are not listed. No stated cut-off is given here; in the data, active means normalized growth mostly below about 0.91 (no sharp cut-off); inconclusive means no clear call, values can overlap the other calls; inactive means mostly above about 0.92. This is one part of the list.
Labels: T = active, F = inactive

COMPOUND	CAT
CN1CCc2cc3c(cc2C1O)OCO3 (stereo not given)	F
Cc1cc(C(C)(C)CC(C)(C)C)ccc1OCCOCC[N+](C)(C)Cc1ccccc1	T
C[C@@H]1O[C@@H](O[C@H]2[C@@H](Oc3cc(O)c4c(c3)O[C@H](c3ccc(O)cc3)CC4=O)O[C@H](CO)[C@@H](O)[C@@H]2O)[C@H](O)[C@H](O)[C@H]1O	F
CC1(C)S[C@@H]2[C@H](NC(=O)[C@H](NC(=O)N3CCNC3=O)c3ccccc3)C(=O)N2C1C(=O)O (stereo not given in full)	F
CCC(C(=O)O)c1ccccc1 (stereo not given)	F

====

Experiment: chemical genetic growth profiling, strain panel (AID 1159580);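 further: tested at 20 µM; growth read once vehicle control cultures reached saturation at 30 °C; 1 = growth at the plate median or of vehicle wells; lower values mean less growth of the strain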
Details: S. cerevisiae deletion strains, growth OD, locus YDR318W, strain mcm21, active compounds read low
Hit rate of the full screen: of about 5,500 compounds, about 2,000 (36%) were called active. Inconclusive results (about 18%) are left out. The list shows a part of the results.
OBSERVABLE: normalized growth

COMPOUND	OBSERVABLE	TEST_VALUE
COc1ccc2cc1Oc1ccc(cc1)C[C@H]1c3cc(c(OC)cc3CCN1C)Oc1c(OC)c(OC)cc3c1[C@H](C2)N(C)CC3	normalized growth	1
COc1ccc(C2CC(=O)c3ccc(OC)cc3O2)cc1 (stereo not given)	normalized growth	0.906
COC(=O)COc1ccc(Cl)cc1Cl	normalized growth	1.02
CC(=O)O[C@]1(C(C)=O)CCC2C3C=C(C)C4=CC(=O)CCC4(C)C3CCC21C (stereo not given in full)	normalized growth	0.92
COC(=O)c1c(Cl)c(Cl)c(C(=O)OC)c(Cl)c1Cl	normalized growth	1
O=C(O)COc1cc(Cl)c(Cl)cc1Cl	normalized growth	1.02
COc1ccc(C(=O)c2ccccc2O)c(O)c1	normalized growth	0.91
CC1(O)/C=C/C=C(\CO)C2CC(C)(C)C2(O)CC1 (stereo not given)	normalized growth	0.993
CC(=O)OCC(CCn1cnc2cnc(N)nc21)COC(C)=O	normalized growth	0.979
CC1(C)C2CC[C@]3(C)C(C(=O)C=C4[C@H]5C[C@@](C)(C(=O)O)CC[C@]5(C)CC[C@]43C)[C@@]2(C)CC[C@@H]1O (stereo not given in full)	normalized growth	0.994
CC(=C(CCOP(=O)(O)O)SC(=O)c1ccccc1)N(C=O)Cc1cnc(C)nc1N	normalized growth	1.02
C[C@@H]1O[C@@H](O[C@H]2[C@@H](Oc3cc(O)c4c(c3)O[C@H](c3ccc(O)cc3)CC4=O)O[C@H](CO)[C@@H](O)[C@@H]2O)[C@H](O)[C@H](O)[C@H]1O	normalized growth	0.994
O=C(O)C1CC([C@@H]2CCCCN2)CN2CCCCC12 (stereo not given in full)	normalized growth	0.98
OCCN(CCO)c1nc(N2CCCCC2)c2nc(N(CCO)CCO)nc(N3CCCCC3)c2n1	normalized growth	0.996
CCCCCC(=O)O[C@]1(C(C)=O)CCC2C3CCC4=CC(=O)CC[C@]4(C)C3CC[C@@]21C (stereo not given in full)	normalized growth	1
CC1(C)C2CC[C@]3(C)C(C(=O)C=C4[C@@H]5C[C@@](C)(C(=O)O)CC[C@]5(C)CC[C@]43C)[C@@]2(C)CC[C@@H]1OC(=O)CCC(=O)O (stereo not given in full)	normalized growth	0.972
COc1cc(OC)c2c(c1)OC(c1ccccc1)CC2=O (stereo not given)	normalized growth	0.988
c1ccc(CC2=NCCN2)cc1	normalized growth	0.893
COc1ccc2c(c1)[C@@]1(C)CCC(=O)C[C@H]1CC2	normalized growth	0.975
Oc1ccc(O)cc1	normalized growth	1
O=C1C[C@@H](c2ccccc2)Oc2cc(O)cc(O)c21	normalized growth	0.875
CC(C)=CCc1c(O)cc(C)oc1=O	normalized growth	0.986
CCC(C(N)=O)c1ccccc1 (stereo not given)	normalized growth	0.998
NC(N)=Nc1nc(CSCCC(N)=NS(N)(=O)=O)cs1	normalized growth	1.02
COc1cc(OC)c2c(c1)O[C@H](c1ccc(OC)c(OC)c1)[C@@H](O)C2	normalized growth	1.01
